Taken from ChEMBL document CHEMBL4689842.

- Tested on: Fibroblast
- MEASUREMENT_PROTOCOL: Multiplex assay against human fibroblast
- Type: toxicity, cell-based
- ASSAY_CONTEXT: 12 h, 1 µM, compound concentration 1 uM, replicate 1
PROPERTY_MEASURED: Population Normal (%)
Numbers only, in %.

[[record]]
compound = "CCCS(=O)(=O)Nc1ccc(F)c(C(=O)c2c[nH]c3ncc(Cl)cc23)c1F"
readout_number = 89

[[record]]
compound = "S=C(NCCCc1c[nH]cn1)NCCCN(Cc1ccc(Cl)c(Cl)c1)c1ccc(Br)cn1"
readout_number = 86

[[record]]
compound = "O=C1N/C(=N/c2ccccc2F)S/C1=C\\c1ccc(C(=O)O)cc1"
readout_number = 86

[[record]]
compound = "CCc1cccc(CC)c1NC(=O)c1nn(C)c2c1CCc1cnc(Nc3ccc(N4CCN(C)CC4)cc3OC)nc1-2"
readout_number = 90

[[record]]
compound = "CCN1CCN(c2ccc(Nc3cc(N(C)C(=O)Nc4c(Cl)c(OC)cc(OC)c4Cl)ncn3)cc2)CC1"
readout_number = 75

[[record]]
compound = "CNc1cc(Oc2cc(C(=O)Nc3cc(N4CCN(C)CC4)cc(C(F)(F)F)c3)ccc2C)ncn1"
readout_number = 90


Okay, here is my list. What is Population Normal (%) for each of these?
1. CN1CCN(C(=O)C(C)(C)c2ccc(C(=O)Nc3cn4cc(-c5cc(C(C)(C)C)cc(C(C)(C)C)c5)ccc4n3)cc2)CC1
2. CN1C2CCC1CC(OC(c1ccc(F)cc1)c1ccc(F)cc1)C2.Cl (stereo not given)
3. CCOC(=O)c1c(C)[nH]c2ccc3c(c12)CN1CCc2cc(OC)ccc2C1O3 (stereo not given)
4. NC(=O)c1cccc(-c2cc(Nc3ccc(OC(F)(F)F)cc3)ncn2)c1

1: 80; 2: 87; 3: 91; 4: 89
